Test: Half life in serum (unknown origin)
Assay type: ADME, cell-free
Quick reference: half-life of the listed items.

| Given smiles | half-life |
| --- | --- |
| CC(C)(C)c1cc(NC(=O)c2c(Cl)cc(NCc3ccncc3)cc2Cl)ccc1O | > 1 h |
| CC(C)(C)c1cc(NC(=O)c2c(Cl)cc(N3CCCCC3)cc2Cl)ccc1O | > 1 h |
| CC(C)(C)c1cc(OC(=O)c2ccc(Cl)cc2Cl)ccc1O | 0.167 h |
| CC(C)(C)c1cc(OC(=O)c2ccc(N)cc2Cl)ccc1O | < 0.25 h |
| COc1ccc(NC(=O)c2ccc(Cl)cc2Cl)cc1C(C)(C)C | > 1 h |
| CC(C)(C)c1cc(NC(=O)c2c(Cl)cc(N3CCNCC3)cc2Cl)ccc1O | > 1 h |
| CC(C)(C)c1cc(OC(=O)c2ccc([N+](=O)[O-])cc2)ccc1O | < 0.25 h |
| CC(C)(C)c1cc(OC(=O)/C=C/c2ccccc2)ccc1O | < 0.25 h |
| CC(C)(C)c1cc(NC(=O)c2c(Cl)cc(N)cc2Cl)ccc1O | > 1 h |
| CCc1cc(NC(=O)c2ccc(Cl)cc2Cl)ccc1O | > 1 h |
| CN(C)c1cc(Cl)c(C(=O)N(Cc2cccnc2)c2ccc(O)c(C(C)(C)C)c2)c(Cl)c1 | > 1 h |
| CC(C)(C)c1cc(NC(=O)c2ccc(Cl)cc2Cl)ccc1O | > 1 h |
| CCNc1cc(Cl)c(C(=O)Nc2ccc(O)c(C(C)(C)C)c2)c(Cl)c1 | > 1 h |
| CN(c1cc(Cl)c(C(=O)Nc2ccc(O)c(C(C)(C)C)c2)c(Cl)c1)C1CCCCC1 | > 1 h |
| CN(C)c1cc(Cl)c(C(=O)N(c2ccc(O)c(C(C)(C)C)c2)C2CCCCC2)c(Cl)c1 | > 1 h |
| Cc1ccc(C(=O)Oc2ccc(O)c(C(C)(C)C)c2)cc1 | < 0.25 h |
| CC(C)(C)c1cc(OC(=O)c2ccco2)ccc1O | < 0.25 h |
| CC(C)(C)c1cc(OC(=O)c2ccc(N)cc2)ccc1O | < 0.25 h |
| CC(C)(C)c1cc(OC(=O)c2c(Cl)cc([N+](=O)[O-])cc2Cl)ccc1O | < 0.25 h |
| CC(C)(C)c1cc(NC(=O)c2c(Cl)cc(NC3CCCCC3)cc2Cl)ccc1O | > 1 h |
| COc1ccccc1C(=O)Oc1ccc(O)c(C(C)(C)C)c1 | < 0.25 h |
| CN(C)c1cc(Cl)c(C(=O)Nc2ccc(O)c(C(C)(C)C)c2)c(Cl)c1 | > 1 h |
